B1: PDZK1 (parent)
chain: FQAKKIPIVSSLADPLDTPPDSKE

variants of: B1; test: protein stability index of a GFP-peptide fusion (GPS, HEK-293T) (PSI 1-6); higher = more stable; conditions: c terminus: a fixed tail appended;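 also: lentivirally expressed fusions sorted by FACS into six bins by GFP to DsRed ratio, PSI derived from sequencing read proportions per bin multiplied by bin number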
quantity kind: protein stability index
# answer = number (no unit)

I have this variant here, FQAKKIPIVSSLADPLATPPDSKE [D17A] , and I need its recorded protein stability index.
3.75
